src = the supplement of paper PMC7877785

# maps each entry to its self-splicing fitness (ln)
test.description: self-splicing fitness, log relative to wild type (ln ratio); higher = more splicing; Tetrahymena group I intron in knt gene, E. coli kanamycin selection, DiMSum; sequences stand for … in CUCUCU…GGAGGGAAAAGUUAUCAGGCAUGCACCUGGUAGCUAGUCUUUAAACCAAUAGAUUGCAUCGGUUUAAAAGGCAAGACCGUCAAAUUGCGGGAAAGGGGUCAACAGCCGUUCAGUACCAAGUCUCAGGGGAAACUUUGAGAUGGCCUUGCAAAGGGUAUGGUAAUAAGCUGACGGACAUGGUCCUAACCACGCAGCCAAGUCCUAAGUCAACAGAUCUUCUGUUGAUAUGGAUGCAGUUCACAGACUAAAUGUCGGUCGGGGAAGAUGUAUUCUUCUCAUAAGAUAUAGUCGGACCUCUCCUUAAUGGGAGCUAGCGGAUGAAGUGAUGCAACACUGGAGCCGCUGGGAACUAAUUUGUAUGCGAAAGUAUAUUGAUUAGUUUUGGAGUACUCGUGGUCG;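 note: selection with 25 µg/mL kanamycin versus none on LB agar overnight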
condition.set: 30 °C
Reply briefly: the number, and no unit.

Ask: I am curious: what self-splicing fitness (ln) value has been reported for CAAGAGCAAUAUUACGUAGG ?
Reply: -1.4

Ask: Proceed to AAACAGCAAUAUUACGUUCU
Reply: -0.831

Ask: Proceed to UUUAAGCAAUAUUACGAGUA
Reply: -1.72

Ask: Proceed to GUAGAGCAAUAUUACGGCCU
Reply: -0.447

Ask: Proceed to GUUAAGCAAUAUUACGAAAG
Reply: -1.91

Ask: Proceed to GUGCAGCAAUAUUACGUUUG
Reply: -1.76
